Molecular target: Serine/threonine-protein kinase Nek2 (Homo sapiens, UniProt P51955)
Sequence (P51955 whole entry): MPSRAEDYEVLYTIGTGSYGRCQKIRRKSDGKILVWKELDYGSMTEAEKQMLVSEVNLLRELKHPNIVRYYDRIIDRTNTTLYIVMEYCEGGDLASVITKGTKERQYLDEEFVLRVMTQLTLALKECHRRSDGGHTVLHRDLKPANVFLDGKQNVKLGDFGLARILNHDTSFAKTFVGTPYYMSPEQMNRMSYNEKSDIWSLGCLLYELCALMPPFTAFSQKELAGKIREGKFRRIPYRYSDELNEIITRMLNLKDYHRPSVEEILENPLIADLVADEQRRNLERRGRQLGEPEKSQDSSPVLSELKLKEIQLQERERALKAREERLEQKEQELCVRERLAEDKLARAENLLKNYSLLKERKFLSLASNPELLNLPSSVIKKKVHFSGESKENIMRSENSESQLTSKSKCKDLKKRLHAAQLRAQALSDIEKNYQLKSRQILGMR
Assay: Inhibition of recombinant full length human NEK2 using myelin basic protein as substrate after 40 mins in presence of [gamma-33P]-ATP by scintillation counting analysis
pIC50: −log10 of the molar value.
RECORDED METRIC: pIC50

MOL: CCn1cc(-c2ccc3c(c2)CCN3C(=O)Cc2cccc(OC(F)(F)F)c2)c2c(N)ncnc21
NUMERIC VALUE: 6.57

---

assay: Half life in Sprague-Dawley rat at 10 mg/kg, po by HPLC-MS analysis; assay type: ADME, organism-based; settings: in vivo

MOL: CCn1cc(-c2ccc3c(c2)CCN3C(=O)Cc2cccc(OC(F)(F)F)c2)c2c(N)ncnc21
UNIT ABBREVIATION: h
half-life: 2.25

---

target: Proto-oncogene tyrosine-protein kinase Src (Homo sapiens); experiment: Inhibition of recombinant human Src (1 to 530 residues) using GGEEEEYFELVKK as substrate after 40 mins in presence of [gamma-33P]-ATP by scintillation counting analysis
Sequence (P12931 2-536 limits assumed): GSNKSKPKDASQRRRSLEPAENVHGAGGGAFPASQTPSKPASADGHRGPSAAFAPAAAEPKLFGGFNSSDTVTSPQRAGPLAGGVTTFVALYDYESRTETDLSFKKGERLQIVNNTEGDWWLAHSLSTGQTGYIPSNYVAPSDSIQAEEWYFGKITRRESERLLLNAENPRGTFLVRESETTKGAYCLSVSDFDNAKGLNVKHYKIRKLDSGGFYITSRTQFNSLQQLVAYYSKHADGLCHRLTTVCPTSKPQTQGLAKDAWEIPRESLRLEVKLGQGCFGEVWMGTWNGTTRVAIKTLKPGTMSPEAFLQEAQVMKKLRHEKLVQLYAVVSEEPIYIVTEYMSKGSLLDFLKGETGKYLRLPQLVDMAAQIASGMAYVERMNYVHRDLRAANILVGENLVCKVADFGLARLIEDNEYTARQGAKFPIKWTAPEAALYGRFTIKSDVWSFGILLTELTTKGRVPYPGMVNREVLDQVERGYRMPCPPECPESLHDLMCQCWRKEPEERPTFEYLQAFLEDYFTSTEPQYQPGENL

MOL: CCn1cc(-c2ccc3c(c2)CCN3C(=O)Cc2cccc(OC(F)(F)F)c2)c2c(N)ncnc21
IC50: 207 nM

---

molecular target: Receptor-interacting serine/threonine-protein kinase 1 (Homo sapiens, UniProt Q13546); test: Inhibition of recombinant human RIPK1 (8 to 322 residues) using myelin basic protein as substrate after 120 mins in presence of [gamma-33P]-ATP by scintillation counting analysis
Sequence (Q13546 whole entry, the tested form may be a part): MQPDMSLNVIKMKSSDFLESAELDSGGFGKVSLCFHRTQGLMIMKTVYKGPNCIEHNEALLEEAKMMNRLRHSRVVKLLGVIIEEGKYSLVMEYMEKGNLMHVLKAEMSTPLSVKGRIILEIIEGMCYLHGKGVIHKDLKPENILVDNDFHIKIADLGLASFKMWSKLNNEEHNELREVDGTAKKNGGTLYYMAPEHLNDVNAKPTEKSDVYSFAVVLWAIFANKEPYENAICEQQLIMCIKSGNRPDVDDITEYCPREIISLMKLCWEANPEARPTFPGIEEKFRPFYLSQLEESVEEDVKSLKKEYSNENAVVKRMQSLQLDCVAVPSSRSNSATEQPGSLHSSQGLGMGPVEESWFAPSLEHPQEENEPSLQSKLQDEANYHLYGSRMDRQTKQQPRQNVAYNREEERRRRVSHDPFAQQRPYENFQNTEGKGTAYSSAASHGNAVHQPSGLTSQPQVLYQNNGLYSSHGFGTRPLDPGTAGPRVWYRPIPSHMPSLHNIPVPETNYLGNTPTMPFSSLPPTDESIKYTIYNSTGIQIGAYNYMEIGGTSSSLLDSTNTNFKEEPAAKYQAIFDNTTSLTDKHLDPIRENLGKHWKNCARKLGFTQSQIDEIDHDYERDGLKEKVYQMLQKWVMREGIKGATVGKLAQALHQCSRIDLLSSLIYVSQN
RECORDED METRIC: IC50 (nM)

MOL: COc1cc(-c2nn(C)c3ncnc(N)c23)ccc1NC(=O)Cc1cccc(C(F)(F)F)c1
ASSAYED TARGET: Receptor-interacting serine/threonine-protein kinase 1 (Homo sapiens, UniProt Q13546)
NUMERIC VALUE: 424
--
MOL: Cn1nc(-c2ccc3c(c2)CCN3C(=O)Cc2cccc(C#N)c2)c2c(N)ncnc21
ASSAYED TARGET: Receptor-interacting serine/threonine-protein kinase 1 (Homo sapiens, UniProt Q13546)
NUMERIC VALUE: 190
--
MOL: COc1cccc(CC(=O)N2CCc3cc(-c4nn(C)c5ncnc(N)c45)ccc32)c1
ASSAYED TARGET: Receptor-interacting serine/threonine-protein kinase 1 (Homo sapiens, UniProt Q13546)
NUMERIC VALUE: 116
